- target.or.test.system: rSmTAChE (Schistosoma mansoni, UniProt A0A3Q0KMM5)
- method.description: biochemical
Overview of reported Inhibition (%) (Average) across a group of compounds:
readout.type: Inhibition (%) (Average)

compound	readout.type	u	readout.number
CCOC(=O)N1c2ccc(C(F)(F)F)cc2[C@@H](N(Cc2cc(C(F)(F)F)cc(C(F)(F)F)c2)C(=O)OC)C[C@H]1CC	Inhibition (%) (Average)	%	71.11
Cc1cnc(Nc2ccc(N3CCN(C)CC3)cc2)nc1Nc1cccc(S(=O)(=O)NC(C)(C)C)c1 [TG-101209, reference compound]	Inhibition (%) (Average)	%	70.99
C[C@]12CC[C@@H]3c4ccc(O)cc4C[C@@H](CCCCCCCCC[S+]([O-])CCCC(F)(F)C(F)(F)F)[C@H]3[C@@H]1CC[C@@H]2O (stereo partly drawn) [BRD-A85667082-001-10-1]	Inhibition (%) (Average)	%	87.19
CC(C)(C)[S@@+]([O-])N1Cc2cc(C(=O)N3CCCCC3)nc(-c3cccc(-c4ccccc4F)c3)c2[C@H]1CCO	Inhibition (%) (Average)	%	62.31
CCCCCCCCCCCCCCCC[N+](C)(C)C	Inhibition (%) (Average)	%	64.20
C[C@H](CO)N1C[C@H](C)[C@H](CN(C)S(=O)(=O)c2ccc(F)cc2)Oc2c(NC(=O)Nc3cccc4ccccc34)cccc2C1=O	Inhibition (%) (Average)	%	68.21
N.N.[Cl][Pt][Cl] [Cisplatin, reference compound]	Inhibition (%) (Average)	%	89.23
C[C@@H]1C[C@H]2[C@@H]3CCC4=CC(=O)C=C[C@]4(C)[C@@]3(Cl)[C@@H](O)C[C@]2(C)[C@@]1(OC(=O)c1ccco1)C(=O)CCl	Inhibition (%) (Average)	%	71.97
CC(C)Oc1ccc(-c2nn([C@@H](C)c3oc4ccc(F)cc4c(=O)c3-c3cccc(F)c3)c3ncnc(N)c23)cc1F	Inhibition (%) (Average)	%	65.60
Cc1cc(SCc2sc(-c3ccc(C(F)(F)F)cc3)nc2C)ccc1OCC(=O)O	Inhibition (%) (Average)	%	75.45
COc1ccc(C(Cl)=C(c2ccc(OC)cc2)c2ccc(OC)cc2)cc1	Inhibition (%) (Average)	%	64.11
COC(=O)N[C@H](C(=O)N1CC2(CC2)C[C@H]1c1ncc(-c2ccc3c(c2)C(F)(F)c2cc(-c4ccc5nc([C@@H]6[C@H]7CC[C@H](C7)N6C(=O)[C@@H](NC(=O)OC)C(C)C)[nH]c5c4)ccc2-3)[nH]1)C(C)C	Inhibition (%) (Average)	%	66.27

###

- target.or.test.system: rSmTAChE (Schistosoma mansoni, UniProt A0A3Q0KMM5)
- method.description: biochemical
Consider the reported Inhibition (%) Replicate B of an entry and match it to a band in low: < 70%; mid: ≥ 70% and < 80%; high: ≥ 80%

In [3]: df
Out[3]:
                                   compound  class_label
0  O=C(NCCCCN1CCN(c2cccc(Cl)c2Cl)CC1)c1ccc2c(c1)Cc1ccccc1-2          low
1  C[C@H](CO)N1C[C@H](C)[C@H](CN(C)S(=O)(=O)c2ccc(F)cc2)Oc2c(NC(=O)Nc3cccc4ccccc34)cccc2C1=O          low
2  CC(C)=CCC/C(C)=C/CC/C(C)=C/CSc1ccccc1C(=O)O          mid
3    CCCC[C@@H](CC)COC(=O)/C=C/c1ccc(OC)cc1          low
4  O=C(C[C@@H]1C[C@@H]2c3cc(NC(=O)NC4CCCC4)ccc3O[C@@H]2[C@H](CO)O1)NCc1ccc(Cl)cc1         high
5  O=C(C[C@@H]1C=C[C@@H](NC(=O)c2ccncc2)[C@H](CO)O1)Nc1ccc(-c2ccccc2)cc1          low
6  O=C1[C@@H]2[C@H]3CC[C@H](C3)[C@@H]2C(=O)N1C[C@@H]1CCCC[C@H]1CN1CCN(c2nsc3ccccc23)CC1          mid
7  C[C@]12CCC3c4ccc(OC(=O)c5ccccc5)cc4CCC3C1CC[C@@H]2O (stereo partly drawn)          low
8  COc1ccc(NC(=O)Nc2ccc3c(c2)[C@H]2C[C@@H](CC(=O)NCc4ccccn4)O[C@@H](CO)[C@H]2O3)cc1         high

###

Overview of reported inhibition at 20 µM across a group of molecules:
- target.or.test.system: rSmTAChE (Schistosoma mansoni)
- method.description: biochemical
- condition.details: read-out: rSmTAChE HTS Inhibition (Ave, %)
readout.type: inhibition at 20 µM (%)

                                   molecule  u  readout_number
0  CC1CCCCOC(CN(C)C(=O)Nc2cccc3ccccc23)C(C)CN(C(C)CO)C(=O)c2cc(N(C)C)ccc2O1 (stereo not drawn)  %            63.9
1  O=C(O)Cn1nnc(-c2cc(N3CCC(Oc4cc(F)ccc4Br)CC3)no2)n1 [MK-8245, reference compound]  %            71.5
2  CC(C)(Sc1cc(C(C)(C)C)c(O)c(C(C)(C)C)c1)Sc1cc(C(C)(C)C)c(O)c(C(C)(C)C)c1 [Probucol, reference compound]  %            93.7
3  CCCCC(CC)CCC(CC(C)C)OS(=O)(=O)O (stereo not drawn) [Sodium-tetradecyl-sulfate, reference compound]  %            74.7
4  COc1cccc(C#Cc2ccc([C@H]3[C@@H](CO)N(C(=O)c4ccccn4)[C@H]3C#N)cc2)c1  %            92.2
5  COc1cccc(C#Cc2ccc([C@@H]3[C@@H](C#N)N(C(=O)c4ccccn4)[C@H]3CO)cc2)c1  %            71.4
6  CN(C)C(=O)Oc1cccc([N+](C)(C)C)c1 [Neostigmine bromide, reference compound]  %            88.1
7  CC(C)(C)[S+]([O-])N1Cc2cc(C(=O)NCCN3CCCC3)nc(-c3cccc(-c4ccc(C#N)cc4)c3)c2C1CCO (stereo not drawn)  %            61.8
8  C/C=C1\[C@H]2C=C(C)C[C@]1(N)c1ccc(=O)[nH]c1C2 [Huperzine A, reference compound]  %            64.1

###

- target.or.test.system: rSmTAChE (Schistosoma mansoni, UniProt A0A3Q0KMM5)
- Type: biochemical
readout.type: Data Mode (curve class), rSmTAChE

                                   compound    result
0  CC(C)Oc1ccc(-c2cnc3c(-c4ccnc5ccccc45)cnn3c2)cc1 [BRD-K39381259-001-01-0]  inactive
1  CCOC(=O)C1=C(C)NC(C)=C(C(=O)OCC)C1c1ccccc1/C=C/C(=O)OC(C)(C)C [BRD-K43586850-001-02-9]  inactive

###

Overview of reported Inhibition (%) Replicate A across a group of molecules:
- target.or.test.system: rSmTAChE (Schistosoma mansoni)
- method.description: biochemical
readout.type: Inhibition (%) Replicate A

In [3]: df
Out[3]:
                                   molecule  readout_number
0  C[C@@H]1C[C@H]2[C@@H]3CCC4=CC(=O)C=C[C@]4(C)[C@@]3(Cl)[C@@H](O)C[C@]2(C)[C@@]1(OC(=O)c1ccco1)C(=O)CCl           69.48
1  CCCCC/C=C\C/C=C\C/C=C\C/C=C\CCCC(=O)Nc1ccc(O)cc1           71.40
2  O=C(Nc1ncc(SCCN2CCCC2)s1)[C@]1(c2ccc(S(=O)(=O)C3CC3)cc2)C[C@H]1C1CCCCC1 [LY2608204, reference compound]           71.61

###

- target.or.test.system: rSmTAChE (Schistosoma mansoni)
- method.description: biochemical
Overview of reported Inhibition (%) Replicate B across a group of compounds:
readout.type: Inhibition (%) Replicate B

>>> df
                                   compound  readout_number
0  COc1ccc(C#Cc2ccc3c(c2)O[C@H](CN(C)S(=O)(=O)c2ccccc2F)[C@H](C)CN([C@H](C)CO)S3(=O)=O)cc1 [BRD-K13781734-001-02-4]           71.97
1  O=C(O)C1(C(=O)O)CCC1.[NH2-].[NH2-].[Pt+2] [BRD-K90947825-001-02-7]           68.22
2  CC(C)(O)c1ccccc1CC[C@@H](SCC1(CC(=O)O)CC1)c1cccc(/C=C/c2ccc3ccc(Cl)cc3n2)c1 [BRD-K69470111-236-09-7]           82.06
